# assay method text: chemical genetic growth profiling, strain panel (AID 1159580);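 further: tested at 20 µM; growth read once vehicle control cultures reached saturation at 30 °C; 1 = growth at the plate median or of vehicle wells; lower values mean less growth of the strain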
# condition notes: S. cerevisiae deletion strains, growth OD, locus YGL173C, strain kem1, hits give low values
About 2,000 (36%) of roughly 5,500 compounds were called active. Roughly 18% stayed inconclusive and do not appear here. The list shows a part of the results.
Overview of recorded normalized growth for various compounds
Please respond with just the number, no unit label.

Past entries and their recorded results:
compound: C=CCC1(C(C)CCC)C(=O)N=C(S)NC1=O (stereo not given)
value type: normalized growth
result: 0.999
--
compound: CCCC(C)C1(CC)C(=O)N=C(S)NC1=O (stereo not given)
value type: normalized growth
result: 0.99
--
compound: Oc1c(Cl)cc(Cl)c2cccnc12
value type: normalized growth
result: 0.076
--
compound: CCCC(C)C1(CC)C(=O)NC(=O)NC1=O (stereo not given)
value type: normalized growth
result: 0.993
--
compound: NCCCC[C@H](N[C@@H](CCc1ccccc1)C(=O)O)C(=O)N1CCC[C@H]1C(=O)O
value type: normalized growth
result: 1.04

For record `O=C(NC(=O)c1c(F)cccc1F)Nc1ccc(Cl)cc1` the listed normalized growth is 1.01

For record `CN/C(=C\[N+](=O)[O-])NCCSCc1ccc(CN(C)C)o1` the listed normalized growth is 0.989

----------
# assay method text: chemical genetic growth profiling, strain panel (AID 1159580);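 further: tested at 20 µM; growth read once vehicle control cultures reached saturation at 30 °C; 1 = growth at the plate median or of vehicle wells; lower values mean less growth of the strain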
# condition notes: S. cerevisiae deletion strains, growth OD, locus YFR003C, strain YPI1, hits give low values
Hit rate of the full screen: of about 5,500 compounds, about 2,000 (36%) were called active. About 18% were inconclusive and are not listed. The list shows a part of the results.
value type: normalized growth
Please respond with just the number, no unit label.

Past entries and their recorded results:
compound: CCCc1c(C(=O)NC2Cc3ccccc3C2)cnn1-c1ccccc1
normalized growth: 0.995

compound: O=C(NCCSCc1cccc(C(F)(F)F)c1)Nc1cccc(C(F)(F)F)c1
normalized growth: 1

For record OC(CNCc1ccc(Cl)cc1)CO/N=C\C1=C(Cl)c2cc(Cl)ccc2OC1 (stereo not drawn) the listed normalized growth is 0.981

----------
Overview of recorded normalized growth for various molecules
# assay method text: chemical genetic growth profiling, strain panel (AID 1159580);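 further: tested at 20 µM; growth read once vehicle control cultures reached saturation at 30 °C; 1 = growth at the plate median or of vehicle wells; lower values mean less growth of the strain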
# condition notes: S. cerevisiae deletion strains, growth OD, locus YJR043C, strain POL32, hits give low values
Hit rate of the full screen: of about 5,500 compounds, about 2,000 (36%) were called active. Inconclusive results (about 18%) are left out. The list shows a part of the results.
Please respond with just the number, no unit label.

Past entries and their recorded results:
molecule: Nc1ccc(C(=O)NCC(=O)O)cc1
normalized growth: 1.01

molecule: CC(C)c1ccc(NC(=S)NC(=O)c2ccc(C(F)(F)F)cc2)cc1
normalized growth: 1.01

molecule: O=C(N/N=C\C=C\c1ccccc1)c1ccccc1-n1cccc1
normalized growth: 1.01

molecule: O=c1[nH]c(=O)n(C2C[C@@H](O)[C@@H](CO)O2)cc1F (some centres undefined)
normalized growth: 0.975

molecule: CC(Cc1ccc(O)c(O)c1)C(C)Cc1ccc(O)c(O)c1 (centres undefined)
normalized growth: 0.425

molecule: Cc1c(O)c(O)cc2c1CC=C1[C@@]2(C)CC[C@@]2(C)C3C[C@](C)(C(=O)O)CC[C@]3(C)CC[C@]12C (some centres undefined)
normalized growth: 0.914

molecule: C=CC(C1=CC(=O)C(OC)=CC1=O)c1ccc(OC)cc1 (centres undefined)
normalized growth: 0.832

molecule: O=C(COC(=O)c1ccccc1Nc1ccccc1)c1ccc(Cl)cc1
normalized growth: 0.98

molecule: C=C(C)[C@H]1CC=C(C(=O)O)CC1
normalized growth: 0.916

molecule: NC(=S)N/N=C\c1cccs1
normalized growth: 0.973

For record C=CC(C1=CC(=O)C(OC)=CC1=O)c1ccccc1 (centres undefined) the listed normalized growth is 0.768
